microsomal CLint at 5 μM values, listed per item
- Protocol text: Intrinsic clearance in rat liver microsomes
- Format: in vitro ADME
- Test settings: rat liver microsomes 0.5 mg/mL, 5 μM test compound, 37° C.; read-out: rat liver microsome (Clint μL/min/mg protein)

COc1ccc(F)c(CNC(=O)c2cn(Cc3ccc(Cn4ccccc4=O)cc3)nc2N)c1F
15 µL/min/mg
COCc1nn(Cc2ccc(Cn3cccn3)cc2)cc1C(=O)NCc1cccc(Cl)c1F [Reference Example J, reference compound]
187 µL/min/mg
COCc1nn(Cc2ccc(Cn3ccccc3=O)nc2)cc1C(=O)NCc1c(C#N)ccc(OC)c1F
8 µL/min/mg

Moving on to the next compound.
Identify microsomal CLint at 5 μM associated with the compound COc1ccnc(CNC(=O)c2cn(Cc3ccc(Cn4ccccc4=O)cc3)nc2C(F)(F)F)c1F 30 µL/min/mg

###

fraction unbound at 5 h, 5 μM values, listed per item
- Protocol text: Plasma protein binding (PPB), rapid equilibrium dialysis, rat plasma
- Assay type: in vitro ADME
- Test settings: 5 μM test compound, dialysis 5 hrs at 37° C.
Write the value as a bare number.

COCc1nn(Cc2ccc(Cn3cc(F)ccc3=O)cc2)cc1C(=O)NCc1nccc(OC)c1F
0.03

Moving on to the next compound.
Identify fraction unbound at 5 h, 5 μM associated with the compound COCc1nn(Cc2ccc(Cn3ccccc3=O)cc2)cc1C(=O)NCc1cc(OC)ccc1-n1cnnn1 0.13

###

- Protocol text: Plasma protein binding (PPB), rapid equilibrium dialysis, human plasma
- Type: in vitro ADME
- Test settings: 5 μM test compound, dialysis 5 hrs at 37° C.
fraction unbound at 5 h, 5 μM values, listed per item

Some entries whose results are on file:
COCc1nn(Cc2ccc(Cn3ccccc3=O)cc2)cc1C(=O)NCc1cc(OC)ccc1C#N
0.08
COCc1nn(Cc2ccc(Cn3ccccc3=O)cc2)cc1C(=O)NCc1nccc(OC)c1C
0.08
COCc1nn(Cc2ccc(N3CCCC3)nc2)cc1C(=O)NCc1c(-n2cnnn2)ccc(OC)c1F
0.03

Moving on to the next compound.
Identify fraction unbound at 5 h, 5 μM associated with the compound O=C(NCc1c(F)cccc1-n1cnnn1)c1cn(Cc2ccc(Cn3ccccc3=O)cc2)nc1C(F)(F)F 0.08

###

Record type: IC50 measurement. Applies to: UniProt:P00748
Sequence (P00748 373-615): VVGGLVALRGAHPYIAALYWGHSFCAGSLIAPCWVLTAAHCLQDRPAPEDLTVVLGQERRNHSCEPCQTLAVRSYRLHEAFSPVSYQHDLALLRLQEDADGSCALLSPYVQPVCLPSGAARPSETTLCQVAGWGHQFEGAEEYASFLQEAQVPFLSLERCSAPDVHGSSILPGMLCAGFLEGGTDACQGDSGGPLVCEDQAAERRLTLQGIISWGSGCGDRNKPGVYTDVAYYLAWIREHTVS

Some entries whose results are on file:
COCc1nn(Cc2ccc(Cn3ccccc3=O)cc2)cc1C(=O)NCc1cc(OC)ncc1C#N
> 4 µM
COCc1nn(Cc2ccc(Cn3ccccc3=O)cc2)cc1C(=O)NCc1cc(OC)ccc1-n1cnnn1
> 40 µM
COCc1nn(Cc2ccc(Cn3ccccc3=O)cc2)cc1C(=O)NCc1cc(OC)ccc1C
> 4 µM

GET IC50 | system: UniProt:P00748 | item: COCc1nn(Cc2cnc(N3CCC(F)(F)C3)nc2)cc1C(=O)NCc1cc(OC)ccc1-n1cnnn1 > 40 µM

GET IC50 | system: UniProt:P00748 | item: COCc1nn(Cc2ccc(Cn3ccccc3=O)cc2)cc1C(=O)NCc1ncc(Cl)cc1F > 40 µM

GET IC50 | system: UniProt:P00748 | item: COCc1nn(Cc2ccc(Cn3ccccc3=O)cc2)cc1C(=O)NCc1nccc(C)c1F > 40 µM

GET IC50 | system: UniProt:P00748 | item: COCc1nn(Cc2ccc(Cn3cc(C)cn3)cc2)cc1C(=O)NCc1cc(OC)ccc1-n1cnnn1 > 4 µM

GET IC50 | system: UniProt:P00748 | item: COc1ccnc(CNC(=O)c2cn(Cc3ccc(Cn4ccccc4=O)cc3)nc2C(F)(F)F)c1F > 4 µM

GET IC50 | system: UniProt:P00748 | item: COCc1nn(Cc2ccc(Cn3ccccc3=O)cc2)cc1C(=O)NCc1c(-n2cnnn2)ccc(OC)c1F > 4 µM

###

- Protocol text: Predicted plasma clearance (Clp), well-stirred model, human
- Assay type: in vitro ADME
- Test settings: percentage of hepatic blood flow
Experimental readout: Predicted in vivo human Clp (% LBF)
Number only, in % LBF; omit the unit.

Some entries whose results are on file:
O=C(NCc1c(F)cccc1-n1cnnn1)c1cn(Cc2ccc(Cn3ccccc3=O)cc2)nc1C(F)(F)F
19
COCc1nn(Cc2ccc(Cn3ccccc3=O)cc2)cc1C(=O)NCc1cc(Cl)ccc1-n1cnnn1
14
COc1ccc(F)c(CNC(=O)c2cn(Cc3ccc(Cn4ccccc4=O)cc3)nc2N)c1F
7
COCc1nn(Cc2ccc(Cn3cc(C)cn3)cc2)cc1C(=O)NCc1cc(OC)ccc1-n1cnnn1
4

Identify Predicted in vivo human Clp (% LBF) associated with the molecule COc1ccnc(CNC(=O)c2cn(Cc3ccc(Cn4ccccc4=O)cc3)nc2C(F)(F)F)c1F 24

Identify Predicted in vivo human Clp (% LBF) associated with the molecule COCc1nn(Cc2ccc(N3CCCC3)nc2)cc1C(=O)NCc1c(-n2cnnn2)ccc(OC)c1F 3

Identify Predicted in vivo human Clp (% LBF) associated with the molecule COCc1nn(Cc2cnc(N3CCC(F)(F)C3)nc2)cc1C(=O)NCc1c(-n2cnnn2)ccc(OC)c1F 2

Identify Predicted in vivo human Clp (% LBF) associated with the molecule COCc1nn(Cc2ccc(Cn3cc(C)cn3)cc2)cc1C(=O)NCc1c(-n2cnnn2)ccc(OC)c1F 35

###

Record type: IC50 measurement. Applies to: Human FXIa (Homo sapiens (Human), UniProt P03951)

Some entries whose results are on file:
COCc1nn(Cc2cnc(N3CCCC3)nc2)cc1C(=O)NCc1c(-n2cnnn2)ccc(OC)c1F
0.127 µM
COCc1nn(Cc2ccc(Cn3ccccc3=O)cc2)cc1C(=O)NCc1cc(OC)n(C)n1
> 40 µM
O=C(NCc1c(F)cccc1-n1cnnn1)c1cn(Cc2ccc(Cn3ccccc3=O)cc2)nc1C(F)(F)F
> 40 µM
COCc1nn(Cc2ccc(Cn3ccccc3=O)cc2)cc1C(=O)NCc1ncc(Cl)cc1C#N
> 40 µM
COCc1nn(Cc2ccc(Cn3ccccc3=O)cc2)cc1C(=O)NCc1c(F)cccc1-n1cnnn1 [Reference Example H, reference compound]
> 40 µM

GET IC50 | system: Human FXIa (Homo sapiens (Human), UniProt P03951) | item: COCc1nn(Cc2ccc(Cn3ccccc3=O)cc2)cc1C(=O)NCc1cc(OC)ncc1C#N > 40 µM

GET IC50 | system: Human FXIa (Homo sapiens (Human), UniProt P03951) | item: COCc1nn(Cc2ccc(Cn3cc(C)cn3)cc2)cc1C(=O)NCc1cc(OC)ccc1-n1cnnn1 > 40 µM

GET IC50 | system: Human FXIa (Homo sapiens (Human), UniProt P03951) | item: COCc1nn(Cc2ccc(Cn3cc(F)ccc3=O)cc2)cc1C(=O)NCc1c(C#N)ccc(OC)c1F > 40 µM

###

- Protocol text: Solubility in water and 0.1N HCl (aq)
- Type: physicochemical
- Test settings: simulated gastric fluid, thermodynamic from solid; 0.1N HCl (aq), incubated at 1 mg/mL, 37° C.; read-out: Solubility 0.1N HCl (aq)
Experimental readout: solubility (µg/mL)
Number only, in µg/mL; omit the unit.

Some entries whose results are on file:
COCc1nn(Cc2ccc(Cn3cc(F)ccc3=O)cc2)cc1C(=O)NCc1nccc(OC)c1F
940
COCc1nn(Cc2ccc(Cn3ccccc3=O)cc2)cc1C(=O)NCc1nccc(OC)c1C
900
COCc1nn(Cc2ccc(Cn3ccccc3=O)cc2)cc1C(=O)NCc1cc(Cl)ccc1-n1cnnn1
46
COCc1nn(Cc2cnc(N3CCCC3)nc2)cc1C(=O)NCc1c(-n2cnnn2)ccc(OC)c1F
924
COCc1nn(Cc2ccc(Cn3ccccc3=O)cc2)cc1C(=O)NCc1c(-n2cnnn2)ccc(OC)c1F
19

Identify solubility associated with the compound COc1ccc(F)c(CNC(=O)c2cn(Cc3ccc(Cn4ccccc4=O)cc3)nc2N)c1F 40

Identify solubility associated with the compound COCc1nn(Cc2cnc(N3CCC(F)(F)C3)nc2)cc1C(=O)NCc1c(-n2cnnn2)ccc(OC)c1F 50

###

- Protocol text: Predicted plasma clearance (Clp), well-stirred model, human
- Type: in vitro ADME
- Test settings: percentage of hepatic blood flow
Predicted in vivo human Clp (% LBF) values, listed per item
Number only, in % LBF; omit the unit.

Some entries whose results are on file:
COc1ccnc(CNC(=O)c2cn(Cc3ccc(Cn4ccccc4=O)cc3)nc2N)c1F [Example 5]
3
COCc1nn(Cc2ccc(Cn3ccccc3=O)cc2)cc1C(=O)NCc1cc(OC)ccc1-n1cnnn1 [Example 40]
17
COCc1nn(Cc2ccc(Cn3ccccc3=O)cc2)cc1C(=O)NCc1c(-n2cnnn2)ccc(OC)c1F [Example 39]
21

Identify Predicted in vivo human Clp (% LBF) associated with the molecule COCc1nn(Cc2ccc(Cn3cc(F)ccc3=O)cc2)cc1C(=O)NCc1nccc(OC)c1F [Example 30] 12

###

- Protocol text: Predicted plasma clearance (Clp), well-stirred model, rat
- Assay type: in vitro ADME
- Test settings: percentage of hepatic blood flow
- Protocol: The predicted plasma clearance (Clp) is calculated using the well-stirred model (Rowland M, Benet L Z, and Graham G G. Clearance concepts in pharmacokinetics. J Pharmacokinet Biopharm. (1973) 1:123-136.), one of several models that can be used to extrapolate the in vitro data. The model assumes instantaneous and complete mixing of drug within the liver and is a function of intrinsic clearance, hepatic blood flow and free fraction of drug in the blood. […]
Experimental readout: Predicted in vivo rat Clp (% LBF)

Some entries whose results are on file:
COc1ccnc(CNC(=O)c2cn(Cc3ccc(Cn4ccccc4=O)cc3)nc2N)c1F [Example 5]
5 % LBF
COCc1nn(Cc2cnc(N3CCCC3)nc2)cc1C(=O)NCc1c(-n2cnnn2)ccc(OC)c1F [Example 79]
3 % LBF

Identify Predicted in vivo rat Clp (% LBF) associated with the compound COCc1nn(Cc2cnc(N3CCCC3)nc2)cc1C(=O)NCc1cc(OC)ccc1-n1cnnn1 [Example 80] 6 % LBF

Identify Predicted in vivo rat Clp (% LBF) associated with the compound COCc1nn(Cc2ccc(Cn3cc(C)cn3)cc2)cc1C(=O)NCc1cc(OC)ccc1-n1cnnn1 [Example 61] 15 % LBF

Identify Predicted in vivo rat Clp (% LBF) associated with the compound COCc1nn(Cc2ccc(Cn3ccccc3=O)cc2)cc1C(=O)NCc1cc(Cl)ccc1-n1cnnn1 [Example 72] 12 % LBF

Identify Predicted in vivo rat Clp (% LBF) associated with the compound COc1ccc(F)c(CNC(=O)c2cn(Cc3ccc(Cn4ccccc4=O)cc3)nc2N)c1F [Example 35] 1 % LBF
